B1: Twister Ribozyme (parent)
chain: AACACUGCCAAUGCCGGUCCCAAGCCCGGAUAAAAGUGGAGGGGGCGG

# Variants of: B1
# Experimental Details: self-cleavage, relative activity (ratio to wild type); higher = more cleavage; co-transcriptional
Observable: self-cleavage
Enter the number alone.

Worked examples, 5 variants total:
C27A G45C : 0.144
U18C A34U : 0.149
G29C G43C : 0.118
C8A U18C : 0.0479
G7C A34G : 0.061

stdin: Request the reported self-cleavage associated with C3U A4G
stdout: 0.183

stdin: Proceed to C15U C27U
stdout: 0.542

stdin: What about C3G A10U ?
stdout: 0.648

stdin: Consider next the variant U18A G39A in the same way.
stdout: 0.104

stdin: How about U6C ?
stdout: 0.596

stdin: Now give it for A30G A32U too.
stdout: 0.962

stdin: Next record, please: G28A G43C
stdout: 0.163

stdin: Could you do the same for U18G G29U , please?
stdout: 0.0942
